Source of measurements: paper PMC12811996

assay: physchem; format: physicochemical; settings: aqueous buffer, kinetic from dmso stock; kinetic in PBS, pH 7.4
MEASURED_ATTRIBUTE: solubility (µM)
Provide the reading as a plain figure in µM.

Please review the entries below; each comes with its answer.
GIVEN_SMILES	solubility, µM
Cc1cc(N(C)C)nc(Nc2ccc(NC(=O)Nc3ccc(F)cc3)cc2)n1	3.7
O=C(Nc1ccc(F)cc1)Nc1ccc(Nc2nc(N3CCNCC3)c3ccccc3n2)cc1	9.6

Please turn your attention to the following entry.
For the molecule `O=C(CCC1CCCCC1)Nc1ccc(Nc2nc(N3CCNCC3)c3ccccc3n2)cc1` , give its measured solubility value.
2.5

====

Experiment: in vitro
Assay type: in vitro ADME
Settings: rat hepatocytes
Procedure: The aqueous solubility and in vitro metabolic stability of selected analogs were assessed to determine if they had favorable parameters (Table 9 ).These analogs were selected based on their potency and the modifications that were incorporated, which led to compounds 55 and 56. […] The high lipophilicity of analogs 1, 11, and 16 was not favorable for metabolic stability. This was performed as previously described.^[ [14] ^, [16] ^]
MEASURED_ATTRIBUTE: hepatocyte CLint (µL/min/1e6 cells)
Provide the reading as a plain figure in µL/min/1e6 cells.

Please review the entries below; each comes with its answer.
COMPOUND	hepatocyte CLint [µL/min/1e6 cells]
O=C(CCC1CCCCC1)Nc1ccc(Nc2nc(N3CCNCC3)c3ccccc3n2)cc1 [Compound 55]	27
Cc1cc(N(C)C)nc(Nc2ccc(NC(=O)Nc3ccc(F)cc3)cc2)n1 [Compound 51]	32

For the compound O=C(Nc1ccc(F)cc1)Nc1ccc(Nc2nc(N3CCNCC3)c3ccccc3n2)cc1 [Compound 56] , give its measured hepatocyte CLint value.
21
